Value source: patent US20150352108A1

- target_entity: IKKε (Homo sapiens, UniProt Q14164)
- Construct: His-tag; made in house; host or cells: Sf9 insect cells
- assay_text: In-vitro IKKε kinase assay ([γ33]ATP filter-plate)
- Assay type: biochemical
- conditions_used: text bins; read-out: IC50 for inhibition of the kinase activity of IKKε
pIC50: −log10 of the molar value.
pIC50 overview

>  <compound>
COc1cc(Nc2nccc(-c3ccc(OC4CCOCC4)c(C#N)c3)n2)ccc1C(=O)N1CCC(N2CCCC2)C1 (centres unmarked)

>  <target_entity>
IKKε (Homo sapiens, UniProt Q14164)

>  <pIC50>
> 8.30

$$$$

What value of pIC50 has been reported for the following compound? COc1ccc(Nc2nccc(-c3cc(Cl)cc(C#N)c3)n2)cc1OC
7.30 to 8.30

// same read-out, input: N#Cc1cc(-c2ccnc(Nc3ccc(N4CCOCC4)cc3)n2)ccc1NCc1ccccc1
7.30 to 8.30

Another compound to check: CC(C)C(=O)Nc1ccc(-c2ccnc(Nc3cccc(CCO)c3)n2)cc1C#N
7.30 to 8.30

And for COc1ccc(-c2ccnc(Nc3ccc(N4CCOCC4)c(OC)c3)n2)cc1C#N ?
> 8.30

----------
- target_entity: IKKε (Homo sapiens, UniProt Q14164)
- Construct: His-tag; made in house; host or cells: Sf9 insect cells
- Sequence (Q14164 1-716): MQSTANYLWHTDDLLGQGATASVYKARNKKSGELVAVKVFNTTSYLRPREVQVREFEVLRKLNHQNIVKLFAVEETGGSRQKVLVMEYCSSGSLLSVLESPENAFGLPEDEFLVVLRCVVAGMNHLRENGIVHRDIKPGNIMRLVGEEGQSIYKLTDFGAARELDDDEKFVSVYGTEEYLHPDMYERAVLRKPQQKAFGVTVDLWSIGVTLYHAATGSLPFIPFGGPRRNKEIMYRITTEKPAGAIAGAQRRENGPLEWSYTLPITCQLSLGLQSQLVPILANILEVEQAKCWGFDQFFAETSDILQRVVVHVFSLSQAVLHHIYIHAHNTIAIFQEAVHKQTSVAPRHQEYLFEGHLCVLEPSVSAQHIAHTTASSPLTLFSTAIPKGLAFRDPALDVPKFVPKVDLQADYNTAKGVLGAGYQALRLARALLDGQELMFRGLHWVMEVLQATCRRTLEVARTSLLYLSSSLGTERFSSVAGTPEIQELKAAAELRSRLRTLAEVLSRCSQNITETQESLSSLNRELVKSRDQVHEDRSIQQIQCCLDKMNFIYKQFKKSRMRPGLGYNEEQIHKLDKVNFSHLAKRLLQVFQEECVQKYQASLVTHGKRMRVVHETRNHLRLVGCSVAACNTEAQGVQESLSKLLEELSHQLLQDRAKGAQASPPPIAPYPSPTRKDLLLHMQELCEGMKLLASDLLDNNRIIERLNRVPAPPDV
- assay_text: In-vitro IKKε kinase assay ([γ33]ATP filter-plate)
- Assay type: biochemical
- conditions_used: text bins; read-out: IC50 for inhibition of the kinase activity of IKKε
pIC50: −log10 of the molar value.
Below, each entry is listed alongside its reported pIC50.

Recorded pIC50, per entry:
>  <compound>
N#Cc1cc(-c2ccnc(Nc3ccc(N4CCOCC4)c(F)c3)n2)ccc1OC1CCOCC1

>  <pIC50>
> 8.30

$$$$
>  <compound>
N#Cc1cc(-c2ccnc(Nc3ccc(N4CCOCC4)cc3)n2)ccc1OC1CNC1

>  <pIC50>
7.30 to 8.30

$$$$
>  <compound>
CC(C)C(=O)Nc1ccc(-c2ccnc(Nc3ccc(C(C)CN4CCOCC4)cc3)n2)cc1C#N (centres unmarked)

>  <pIC50>
6.30 to 7.30

$$$$
>  <compound>
N#Cc1cc(-c2ccnc(Nc3ccc(N4CCOCC4)cc3)n2)ccc1OCCCO

>  <pIC50>
> 8.30

$$$$
>  <compound>
N#Cc1cc(-c2ccnc(Nc3ccc(N4CCOCC4)cc3)n2)ccc1OC1CCN(C=O)CC1

>  <pIC50>
> 8.30

$$$$
>  <compound>
N#Cc1cc(-c2ccnc(Nc3ccc(-c4cn[nH]c4)cc3)n2)ccc1OC1CCOCC1

>  <pIC50>
> 8.30

$$$$
>  <compound>
COc1cc(NC(=O)NC[C@H](C)O)cc(Nc2nccc(-c3ccc(OC)c(C#N)c3)n2)c1

>  <pIC50>
7.30 to 8.30

$$$$

--- query ---
I would be grateful if you could share the reported pIC50 for COc1cc(Nc2nccc(-c3ccc(OC4CCOCC4)c(C#N)c3)n2)ccc1OCCOCCNS(C)(=O)=O .
> 8.30
